Recorded values, source patent US12187807B2.

Biological target: T1, biotinylated peptide representing the N-terminus of C5aR1 without tyrosine sulfation (Homo sapiens, UniProt P21730)
T1 construct: the N-terminus without tyrosine sulfation
T1 sequence (P21730 1-37 limits assumed): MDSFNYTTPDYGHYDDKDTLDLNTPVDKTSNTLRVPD
Test: Epitope mapping by biolayer interferometry, N-terminus without tyrosine sulfation
Format: binding
Design: key: “+” indicates binding to the listed peptide; “−” indicates lack of binding to the listed peptide
Settings: 10 μg/mL of antibody, biotinylated peptide on streptavidin biosensor
Procedure: The epitope mapping was undertaken, using biolayer interferometry, on a series of exemplary anti-C5aR1 antibodies generated as described in Example 1. Briefly, for each antibody, biotinylated peptides representing ECL2, the N-terminus with tyrosine sulfation, and the N-terminus without tyrosine sulfation, were immobilized in a streptavidin biosensor. Subsequently, the biosensor was exposed to 10 μg/mL of antibody to detect antibody binding to the immobilized peptide. […]
Readout name: Binding to Non-sulfated N-terminal peptide

[[record]]
molecule = "clone 583: anti-C5aR1 Site I antibody; VH SEQ ID NO: 536, VL SEQ ID NO: 595 (antibody, V domains shown) VH: EVQLVESGGGLVKPGGSLKLSCAASGFTFNAYAMSWVRQTPEKRLEWVASISTGGNTYCPDSVKDRFTVSRDNVRNILYLQMSSLRSEDTAMYYCTRGYQRFSGFAYWGQGTLVTVS VL: DVVMTQTPLSPPVSLGYQASISCRSSQSLVHSNGNTYLNWYLQKPGQSPKLLIYKVSNRLSGVPDRFSGSGSGTDFTLKISRVETEDLGVYFCSQSTHVPYTFGGGTKLEIK"
assay_value = "+"

[[record]]
molecule = "clone 329: anti-C5aR1 Site II antibody; VH SEQ ID NO: 492, VL SEQ ID NO: 552 (antibody, V domains shown) VH: QVQLQQSGAELTKPGASVKLSCKASGYTFTNYWMHWVKQRPGQGLEWIGYLNPSSGYTKYNQKFKDKATLTADKSSSTAYMQLNSLTYEDSAVYYCTRSGGDNYGNPYYFDRWGQGTTVTVSS VL: DVVMTQTPLSLTVSLGDQASISCRSSQSLVHSNGNTYLHWYLQKPGQSPKFLIYKVSNRFSGVPDRFSGSGSGTDFRLKISRVEAEDLGVYFCSQSTLVPLTFGAGTKLEIK"
assay_value = "−"

[[record]]
molecule = "clone 336v2-1: exemplary anti-C5aR1 antibody, Table 1C (antibody, V domains shown) VH: QVQLKQSGPGLVQSSQSLSITCTVSGFSLISYGVHWVRQSPGKGLEWLGVIWSGGSTDYNAAFKSRLSITKDNSKSQVFFKMNSLQADDTAIYYCAKNSQLGNAMDYWGQGTTVTVSS VL: DIVMSQSPSSLAVSAGEKVTMSCKSSQSLLSSRTRKNYLAWYQQKPGQSPKLLIYWASTRESGVPDRFTGSGSGTDFTLTISSVQAEDLALYFCNQSYDLLTFGAGTKLEIK"
assay_value = "−"

[[record]]
molecule = "clone 66: anti-C5aR1 Site I antibody; VH SEQ ID NO: 483, VL SEQ ID NO: 543 (antibody, V domains shown) VH: QVQLQQSDAELVKPGASVKISCKASGYTFIDHAIHWVKQRPEQGLEWIGYISPGNGEIKYNEKFKAKATLTADKSSSAAYMQLNSLTSADSAVYFCKRALFYYTGKYQPMDYWGQGTTVTDSS VL: DIVMTQSQKFMSTTAGDRVSITCKASQNVGSAVVWYQQKPGRSPKLLIYSSSIRYTGVPDRFTGSGSGTDFTLTINSVQSEDLADYFCQQYNSFPLTFGAGTKLEIK"
assay_value = "−"


# evaluate next
Returns the measured Binding to Non-sulfated N-terminal peptide for the input molecule. Input: clone 11v2: anti-C5aR1 Site II antibody; VH SEQ ID NO: 482, VL SEQ ID NO: 542 (antibody, V domains shown) VH: QVQLQQSGPELVKPGASVKISCKASGYSFSSSWMNWVKQRPGKGLEWIGRISPGDGDTRYSGKFKGKATLTADKSSSTAYMQVTSLTSEDSAIYFCVRFLITSTRYVMDYWGQGTTVTVSS VL: DVVMTQTPLSLPVSLGDQASISCRSSQSLVHSNGNTYLHWYLQKPGQSPKLLIYKVSNRFSGVPDRFSGSGSGTDFTLKISRVEAEDLGVYFCSQSTLVPPTFGGGTKLEIK
−
